target: JAK3 (JH1 and JH2 domain) (Homo sapiens, UniProt P52333); assay: JAK3 Kinase Assay (ELISA of peptide substrate phosphorylation); conditions: purified JAK3 enzyme, 10 μM ATP, biotinylated peptide substrate, 1 hour at room temperature
Sequence (P52333 521-1111 limits assumed): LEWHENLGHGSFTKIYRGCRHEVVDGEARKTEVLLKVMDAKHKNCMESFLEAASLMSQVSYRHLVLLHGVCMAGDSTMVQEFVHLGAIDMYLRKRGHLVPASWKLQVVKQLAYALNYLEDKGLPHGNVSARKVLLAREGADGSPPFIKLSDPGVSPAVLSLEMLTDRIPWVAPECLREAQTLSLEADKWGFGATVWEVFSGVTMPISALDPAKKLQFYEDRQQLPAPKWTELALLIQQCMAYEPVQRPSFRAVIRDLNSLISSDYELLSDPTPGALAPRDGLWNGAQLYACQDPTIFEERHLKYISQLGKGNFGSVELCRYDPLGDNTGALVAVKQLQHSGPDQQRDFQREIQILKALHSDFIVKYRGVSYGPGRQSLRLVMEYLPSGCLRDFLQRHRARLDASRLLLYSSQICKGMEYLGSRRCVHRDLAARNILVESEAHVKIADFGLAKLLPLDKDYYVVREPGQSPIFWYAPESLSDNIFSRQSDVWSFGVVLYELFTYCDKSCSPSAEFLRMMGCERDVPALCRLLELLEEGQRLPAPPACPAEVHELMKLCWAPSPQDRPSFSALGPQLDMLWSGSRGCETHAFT
pIC50: −log10 of the molar value.

| Compound | Rel | pIC50 |
| --- | --- | --- |
| CN1CCN(CCCNC(=O)OC2CCCn3c4ccccc4c4c5c(c6c7ccccc7n(c6c43)C2)C(=O)NC5=O)CC1 (stereo not shown) | < | 6.70 |
| CN(C)CCCN(CCCN(C)C)C(=O)OC1Cn2c3ccccc3c3c4c(c5c6ccccc6n(c5c32)CC1O)C(=O)NC4=O (stereo not shown) | < | 6.70 |
| O=C1NCc2c1c1c3ccccc3n3c1c1c2c2ccccc2n1CC(CO)(CO)C3 | = | 7.82 |
| CC(C)NCc1ccc2c(c1)c1c3c(c4c5ccccc5n5c4c1n2CC(CO)C5)CNC3=O (stereo not shown) | = | 6.62 |
| O=C(NCCCN1CCCC1=O)OCC1(O)Cn2c3ccccc3c3c4c(c5c6ccccc6n(c5c32)C1)C(=O)NC4 (stereo not shown) | = | 7.14 |
| O=C1NC(=O)c2c1c1c3ccccc3n3c1c1c2c2ccccc2n1CC(O)CCC3 (stereo not shown) | = | 8.10 |
| CC(C)NC(=O)OCC1(O)Cn2c3ccccc3c3c4c(c5c6ccccc6n(c5c32)C1)C(=O)NC4 (stereo not shown) | < | 6.70 |
| O=C1NCc2c1c1c3cc(/C=C/Cn4ccnc4)ccc3n3c1c1c2c2ccccc2n1CC(O)C(O)C3 (stereo not shown) | = | 7.62 |
| O=C1NC(=O)c2c1c1c3cc(-c4ccncc4)ccc3n3c1c1c2c2ccccc2n1CC(O)CC3 (stereo not shown) | = | 7.40 |
| O=C1NC(=O)c2c1c1c3ccccc3n3c1c1c2c2ccccc2n1CC(O)(C(=O)N1CCN(CC(=O)N2CCCC2)CC1)C(O)C3 (stereo not shown) | = | 7.27 |

----------
Molecular target: JAK3 (JH1 and JH2 domain) (Homo sapiens)
Assay: JAK3 Kinase Assay (ELISA of peptide substrate phosphorylation)
Details: purified JAK3 enzyme, 10 μM ATP, biotinylated peptide substrate, 1 hour at room temperature
Procedure: JAK3 enzyme activity was assayed relative to enzyme phosphorylation using the method described herein. Sf21 cells derived from the ovarian tissue of the fall armyworm Spodotera frugiperda were obtained from Pharmingen (San Diego, Calif.) and maintained at a temperature of about 26-28° C. in 1 l Bellco spinner flasks at 60-90 rpm. Cell viability was maintained at 95-100%, as determined by a tryptan blue dye exclusion test. […]
Reported IC50 is given for each of the following molecules.

| Molecule | Rel | IC50, nM |
| --- | --- | --- |
| O=C(NCCCN1CCOCC1)OC1CCn2c3ccccc3c3c4c(c5c6ccccc6n(c5c32)C1)C(=O)NC4=O (stereo not drawn) | = | 149 |
| Cc1ccc(CNC(=O)OC2CCn3c4ccccc4c4c5c(c6c7ccccc7n(c6c43)C2)C(=O)NC5=O)o1 (stereo not drawn) | = | 11 |
| O=C1NCc2c1c1c3ccccc3n3c1c1c2c2ccccc2n1CC(O)(COC(=O)N1CCC(O)CC1)C3 (stereo not drawn) | = | 39 |
| COc1ccc2[nH]cc(CCNC(=O)OC3Cn4c5ccccc5c5c6c(c7c8ccccc8n(c7c54)CC3O)C(=O)NC6=O)c2c1 (stereo not drawn) | = | 169 |
| O=C1NCc2c1c1c3cc(CN4CCOCC4)ccc3n3c1c1c2c2cc(CN4CCOCC4)ccc2n1CC(CO)C3 (stereo not drawn) | > | 50000 |
